- assay-overview: Compound cytotoxicity, XTT-based colorimetric assay
- Assay type: cell-based
- cond: human; uninfected MT2 cells, day 4, XTT
# CC50 at 4 day per record follows

Reference set (3 entries):
compound	assay-result
O=C(Cn1nc(C(F)F)c2c1C(F)(F)[C@@H]1C[C@H]21)N[C@@H](Cc1cc(F)cc(F)c1)c1nc2cc(C3CCOCC3)ccc2c(=O)n1-c1ccc(Cl)c2c(NS(=O)(=O)C3CC3)nn(CC(F)F)c12 (atropisomer, axis not shown; (P)) [Example 18]	> 500 nM
C[C@@H]1CC(c2ccc3c(=O)n(-c4ccc(Cl)c5c(NS(=O)(=O)C6CC6)nn(CC(F)F)c45)c([C@H](Cc4cc(F)cc(F)c4)NC(=O)Cn4nc(C(F)F)c5c4C(F)(F)[C@@H]4C[C@H]54)nc3c2)=C[C@H](C)O1 (atropisomer, axis not shown; (P)) [Example 21]	> 500 nM
Cn1nc(NS(C)(=O)=O)c2c(Cl)ccc(-n3c([C@H](Cc4cc(F)cc(F)c4)NC(=O)Cn4nc(C(F)F)c5c4C(F)(F)[C@@H]4C[C@H]54)nc4cc(C5=CCOCC5)ccc4c3=O)c21 (atropisomer, axis not shown; (P)) [Example 9]	> 1000 nM

Look up CC50 at 4 day for this compound: CC1NCCNC1c1ccc2c(=O)n(-c3ccc(Cl)c4c(NS(C)(=O)=O)nn(C)c34)c([C@H](Cc3cc(F)cc(F)c3)NC(=O)Cn3nc(C(F)F)c4c3C(F)(F)[C@@H]3C[C@H]43)nc2c1 (stereo partly shown) [Example 10]
> 1000 nM
